Data credit: patent US20260092071A1

Dmax: recorded values
Target: SMARCA4 (Homo sapiens)
Sequence (P51532 whole entry): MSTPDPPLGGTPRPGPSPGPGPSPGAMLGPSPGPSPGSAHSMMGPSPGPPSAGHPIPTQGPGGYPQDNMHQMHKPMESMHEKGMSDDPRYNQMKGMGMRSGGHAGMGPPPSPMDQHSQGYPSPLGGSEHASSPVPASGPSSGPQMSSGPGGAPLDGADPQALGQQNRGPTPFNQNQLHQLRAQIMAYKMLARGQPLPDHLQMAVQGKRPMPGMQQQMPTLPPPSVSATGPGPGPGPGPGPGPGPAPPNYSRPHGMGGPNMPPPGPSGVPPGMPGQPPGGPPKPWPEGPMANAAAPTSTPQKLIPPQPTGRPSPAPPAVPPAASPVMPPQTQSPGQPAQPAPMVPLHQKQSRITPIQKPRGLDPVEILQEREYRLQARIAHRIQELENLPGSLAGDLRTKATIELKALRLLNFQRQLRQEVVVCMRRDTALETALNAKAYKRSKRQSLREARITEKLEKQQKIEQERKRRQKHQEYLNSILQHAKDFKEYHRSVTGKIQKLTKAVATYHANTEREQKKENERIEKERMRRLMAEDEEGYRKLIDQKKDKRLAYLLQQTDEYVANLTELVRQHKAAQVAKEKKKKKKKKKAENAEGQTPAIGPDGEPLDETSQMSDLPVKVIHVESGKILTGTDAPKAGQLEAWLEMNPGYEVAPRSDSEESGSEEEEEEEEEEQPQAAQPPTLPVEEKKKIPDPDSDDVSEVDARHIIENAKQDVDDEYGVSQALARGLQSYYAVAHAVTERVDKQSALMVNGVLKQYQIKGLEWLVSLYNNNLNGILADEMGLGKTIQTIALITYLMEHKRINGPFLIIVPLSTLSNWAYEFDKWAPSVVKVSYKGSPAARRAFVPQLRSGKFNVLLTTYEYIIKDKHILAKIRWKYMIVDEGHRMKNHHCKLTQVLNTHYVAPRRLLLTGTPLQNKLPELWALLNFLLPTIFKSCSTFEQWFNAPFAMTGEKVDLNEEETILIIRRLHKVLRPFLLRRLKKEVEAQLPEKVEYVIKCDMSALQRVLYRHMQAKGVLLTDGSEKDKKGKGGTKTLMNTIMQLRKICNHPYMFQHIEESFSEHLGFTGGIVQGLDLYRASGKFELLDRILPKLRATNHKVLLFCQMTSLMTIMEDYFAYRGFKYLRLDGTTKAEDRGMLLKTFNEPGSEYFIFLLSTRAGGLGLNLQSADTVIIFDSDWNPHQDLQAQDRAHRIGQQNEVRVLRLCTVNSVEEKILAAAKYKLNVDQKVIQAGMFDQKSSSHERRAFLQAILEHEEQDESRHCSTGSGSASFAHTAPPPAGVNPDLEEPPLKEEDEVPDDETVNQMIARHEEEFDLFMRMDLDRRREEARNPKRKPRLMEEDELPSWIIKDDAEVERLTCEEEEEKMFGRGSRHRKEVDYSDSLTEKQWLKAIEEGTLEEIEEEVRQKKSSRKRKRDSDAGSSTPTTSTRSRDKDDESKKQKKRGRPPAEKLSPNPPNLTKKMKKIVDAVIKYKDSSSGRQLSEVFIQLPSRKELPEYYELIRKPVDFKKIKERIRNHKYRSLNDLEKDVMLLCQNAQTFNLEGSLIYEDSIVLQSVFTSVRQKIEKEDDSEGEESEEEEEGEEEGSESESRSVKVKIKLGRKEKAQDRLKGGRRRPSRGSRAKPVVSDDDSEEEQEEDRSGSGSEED
Assay: HiBiT assay for protein degradation, Hela SMARCA4-HiBiT cells (A series)
Type: cell-based
Design: fuse HiBiT to the carboxy terminus of SMARCA2 (Promega CS302365) or SMARCA4 (Promega CS3023225); host or cells: HeLa (CRISPR/Cas9 HiBiT knock-in)
Conditions: Hela SMARCA4-HiBiT cells, 24 hours treatment; read-out: SMARC A4 Hela HiBit Dmax
Procedure: Hela cells were genetically modified via CRISPR/Cas9 to fuse HiBiT to the carboxy terminus of SMARCA2 (Promega CS302365) or SMARCA4 (Promega CS3023225). Cells were cultured in DMEM containing 10% FBS and 1% (Vol:Vol) penicillin-streptomycin. […] At the end of experiment, levels of SMARCA2 or SMARCA4 expression were assessed with Nano-Glo® HiBiT Lytic Detection Assay (Promega N3050). IC50 was obtained using the GraphPad Prism data analysis software.

Some compounds with known Dmax results, for comparison:
compound	Dmax
Cc1ncsc1-c1ccc([C@H](CC(=O)N(C)C)NC(=O)[C@@H]2C[C@@H](O)CN2C(=O)[C@@H](n2cc([C@H]3CC[C@H](CN4CCC(c5ccc6c(c5)-n5c(nc(=O)c7c(Cl)cccc75)C65CCCCC5)CC4)CC3)nn2)C(C)(C)C)cc1 [Compound A147]	50 to 69%
Cc1ncsc1-c1ccc([C@H](CN2CC(C(=O)O)C2)NC(=O)[C@@H]2C[C@@H](O)CN2C(=O)[C@@H](n2cc([C@H]3CC[C@H](CN4CCC(c5ccc6c(c5)-n5c(nc(=O)c7c(Cl)cccc75)C65CCCCC5)CC4)CC3)nn2)C(C)(C)C)cc1 [Compound A157]	< 50%
Cc1ncsc1-c1ccc([C@H](CC(=O)N2CCC3(CCC(CN4CCC(c5ccc6c(c5)-n5c(nc(=O)c7c(Br)cccc75)C65CCCCC5)CC4)CC3)CC2)NC(=O)[C@@H]2C[C@@H](O)CN2C(=O)[C@@H](n2cc(C3CC3)nn2)C(C)(C)C)cc1 [Compound A142]	70 to 90%
Cc1ccncc1-c1ccc([C@H](CN2CCOCC2)NC(=O)[C@@H]2C[C@@H](O)CN2C(=O)[C@@H](n2cc([C@H]3CC[C@H](CN4CCC(c5ccc6c(c5)-n5c(nc(=O)c7c(Cl)cccc75)C65CCCCC5)CC4)CC3)nn2)C(C)(C)C)cc1 [Compound A175]	< 50%
CC(C)(C)[C@@H](C(=O)N1C[C@H](O)C[C@H]1C(=O)N[C@@H](CN1CCOCC1)c1ccc(-c2ccccc2F)cc1)n1cc([C@H]2CC[C@H](CN3CCC(c4ccc5c(c4)-n4c(nc(=O)c6c(Cl)cccc64)C54CCCCC4)CC3)CC2)nn1 [Compound A164]	50 to 69%

-- ask # Dmax lookup, item Cc1ncsc1-c1ccc([C@H](C)NC(=O)[C@@H]2C[C@@H](O)CN2C(=O)[C@H](C2CCN(C)CC2)n2cc([C@H]3CC[C@H](CN4CCC(c5ccc6c(c5)-n5c(nc(=O)c7c(Cl)cccc75)C65CCCCC5)CC4)CC3)nn2)cc1 [Compound A110]
-- reply 50 to 69%

-- ask Can you look up the measured Dmax of Cc1ncsc1-c1ccc([C@H](CN2CCC(F)(F)CC2)NC(=O)[C@@H]2C[C@@H](O)CN2C(=O)[C@@H](n2cc([C@H]3CC[C@H](CN4CCC(c5ccc6c(c5)-n5c(nc(=O)c7c(Cl)cccc75)C6(C)C)CC4)CC3)nn2)C(C)(C)C)cc1 [Compound A94] for me?
-- reply < 50%

* * *

Molecular target: SMARCA2 (Homo sapiens)
Sequence (P51531 whole entry): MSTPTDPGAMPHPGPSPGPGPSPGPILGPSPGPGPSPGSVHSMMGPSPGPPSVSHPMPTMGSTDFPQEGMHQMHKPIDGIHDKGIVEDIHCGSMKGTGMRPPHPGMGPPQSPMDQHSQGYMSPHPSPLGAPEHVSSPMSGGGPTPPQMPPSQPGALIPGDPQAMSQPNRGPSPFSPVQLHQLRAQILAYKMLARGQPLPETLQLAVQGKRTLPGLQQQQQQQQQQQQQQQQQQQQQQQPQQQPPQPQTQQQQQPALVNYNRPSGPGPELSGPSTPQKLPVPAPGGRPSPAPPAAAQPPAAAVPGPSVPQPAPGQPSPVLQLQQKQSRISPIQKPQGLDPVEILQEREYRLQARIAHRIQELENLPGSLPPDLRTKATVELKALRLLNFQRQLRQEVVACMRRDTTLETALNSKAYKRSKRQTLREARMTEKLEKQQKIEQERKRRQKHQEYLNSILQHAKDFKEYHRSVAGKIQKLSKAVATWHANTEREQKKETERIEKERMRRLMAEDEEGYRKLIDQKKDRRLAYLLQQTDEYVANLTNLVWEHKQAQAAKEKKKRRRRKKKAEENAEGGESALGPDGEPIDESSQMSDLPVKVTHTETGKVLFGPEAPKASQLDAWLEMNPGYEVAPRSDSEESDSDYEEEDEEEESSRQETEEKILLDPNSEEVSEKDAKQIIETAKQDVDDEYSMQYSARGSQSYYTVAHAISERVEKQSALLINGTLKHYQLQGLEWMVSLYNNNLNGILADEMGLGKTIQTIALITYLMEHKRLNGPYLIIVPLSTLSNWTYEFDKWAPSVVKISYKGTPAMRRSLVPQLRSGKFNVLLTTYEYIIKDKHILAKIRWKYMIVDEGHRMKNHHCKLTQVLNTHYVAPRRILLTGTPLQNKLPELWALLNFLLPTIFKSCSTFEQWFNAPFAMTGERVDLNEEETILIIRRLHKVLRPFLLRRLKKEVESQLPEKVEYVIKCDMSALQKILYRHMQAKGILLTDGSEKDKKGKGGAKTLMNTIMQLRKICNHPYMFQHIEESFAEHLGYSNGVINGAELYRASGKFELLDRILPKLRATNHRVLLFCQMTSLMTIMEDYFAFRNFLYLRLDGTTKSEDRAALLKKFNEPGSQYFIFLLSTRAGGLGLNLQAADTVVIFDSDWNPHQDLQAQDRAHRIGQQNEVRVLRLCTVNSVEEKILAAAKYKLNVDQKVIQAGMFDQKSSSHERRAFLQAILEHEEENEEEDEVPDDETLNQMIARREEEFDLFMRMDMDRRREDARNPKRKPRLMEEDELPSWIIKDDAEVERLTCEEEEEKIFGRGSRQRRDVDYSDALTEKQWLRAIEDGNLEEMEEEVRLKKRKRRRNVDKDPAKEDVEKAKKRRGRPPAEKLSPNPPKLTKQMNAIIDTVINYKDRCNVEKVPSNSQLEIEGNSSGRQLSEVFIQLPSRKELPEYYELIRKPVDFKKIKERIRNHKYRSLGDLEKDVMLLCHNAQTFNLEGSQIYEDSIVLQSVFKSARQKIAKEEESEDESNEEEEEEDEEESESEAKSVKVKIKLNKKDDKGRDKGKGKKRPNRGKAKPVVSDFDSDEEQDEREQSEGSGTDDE
Assay: HiBiT assay for protein degradation, Hela SMARCA2-HiBiT cells (A series)
Assay type: cell-based
Design: Hela cells were genetically modified via CRISPR/Cas9 to fuse HiBiT to the carboxy terminus of SMARCA2; host or cells: HeLa (CRISPR/Cas9 HiBiT knock-in)
Conditions: Hela SMARCA2-HiBiT cells, 24 hours treatment; read-out: SMARC A2 Hela HiBit DC50
attribute measured: DC50

Some compounds with known DC50 results, for comparison:
Cc1ncsc1-c1ccc([C@H](CC(=O)N(C)C)NC(=O)[C@@H]2C[C@@H](O)CN2C(=O)[C@@H](n2cc([C@H]3CC[C@H](CN4CCC(c5ccc6c(c5)-n5c(nc(=O)c7c(Cl)cccc75)C65CCCCC5)CC4)CC3)nn2)C(C)(C)C)cc1 < 10 nM
CC1(C)c2ccc(C3CCN(C[C@H]4CC[C@H](c5cn([C@H](C(=O)N6C[C@H](O)C[C@H]6C(=O)N[C@@H](CN6CCOCC6)c6ccc(-c7scnc7C(=O)O)cc6)C6CCOCC6)nn5)CC4)CC3)cc2-n2c1nc(=O)c1c(Cl)cccc12 100 to 1000 nM
Cc1ncsc1-c1ccc([C@H](Cn2cc([C@H]3CC[C@H](CN4CCC(c5ccc6c(c5)C5(CCCCC5)c5nc(=O)c7c(Br)cccc7n5-6)CC4)CC3)nn2)NC(=O)[C@@H]2C[C@@H](O)CN2C(=O)[C@@H](NC(=O)C2(F)CC2)C(C)(C)C)cc1 < 100 nM

-- ask Look at this compound and give its reported DC50. CC(C)(C)[C@@H](C(=O)N1C[C@H](O)C[C@H]1C(=O)N[C@@H](CN1CCOCC1)c1ccc(-c2ccccc2F)cc1)n1cc([C@H]2CC[C@H](CN3CCC(c4ccc5c(c4)-n4c(nc(=O)c6c(Cl)cccc64)C54CCCCC4)CC3)CC2)nn1
-- reply < 10 nM

* * *

Target: UniProtKB P51531
Assay: HiBit assay in engineered HT1080 CRISPR knock-in cell, 6 hrs (B series), SMARCA2
Type: cell-based
Conditions: HT1080 CRISPR knock-in cells, 6 hrs incubation; read-out: SMARC A2 HT1080 HiBit DC50
attribute measured: DC50

Cc1ncsc1-c1ccc([C@H](C)NC(=O)[C@@H]2C[C@@H](O)CN2C(=O)[C@H](C(C)C)n2cc(CCCCN3CCC(c4ccc5c(c4)-n4c(nc(=O)c6c(Cl)cccc64)C5(C)C)CC3)nn2)cc1 < 100 nM
Cc1ncsc1-c1ccc([C@H](C)NC(=O)[C@@H]2C[C@@H](O)CN2C(=O)[C@@H](c2cc(OCCCCN3CCC(c4ccc5c(c4)-n4c(nc(=O)c6c(Cl)cccc64)C5(C)C)CC3)no2)C(C)C)cc1 < 100 nM
C[C@H](NC(=O)[C@@H]1C[C@@H](O)CN1C(=O)[C@@H](NC(=O)[C@H]1CC[C@H](C(=O)N2CCC(c3ccc4c(c3)-n3c(nc(=O)c5c(Cl)cccc53)C4(C)C)CC2)CC1)C(C)(C)C)c1ccc(-c2ncnn2C)cc1 100 to 500 nM

-- ask # get_value(readout='DC50', item= Cc1ncsc1-c1ccc([C@H](CC(=O)NCCCCN2CCC(c3ccc4c(c3)-n3c(nc(=O)c5c(Cl)cccc53)C4(C)C)CC2)NC(=O)[C@@H]2C[C@@H](O)CN2C(=O)[C@@H](NC(=O)C2(F)CC2)C(C)(C)C)cc1 )
-- reply > 1000 nM

* * *

Biological target: UniProt:P51532
Test: HiBiT assay for protein degradation, Hela SMARCA4-HiBiT cells (A series)
Type: cell-based
Design: fuse HiBiT to the carboxy terminus of SMARCA2 (Promega CS302365) or SMARCA4 (Promega CS3023225); host or cells: HeLa (CRISPR/Cas9 HiBiT knock-in)
Settings: Hela SMARCA4-HiBiT cells, 24 hours treatment; read-out: SMARC A4 Hela HiBit DC50
// values below are reported DC50

Please review the entries below; each comes with its answer.
molecule	tgt	DC50
Cc1ncsc1-c1ccc([C@H](CCCCCN2CCC(c3ccc4c(c3)C3(CCCCC3)c3nc(=O)c5c(Br)cccc5n3-4)CC2)NC(=O)[C@@H]2C[C@@H](O)CN2C(=O)[C@@H](NC(=O)C2(F)CC2)C(C)(C)C)cc1 [Compound A4]	UniProt:P51532	< 100 nM
COCCOCCOCCOCCOC[C@H](NC(=O)[C@@H]1C[C@@H](O)CN1C(=O)[C@@H](n1cc([C@H]2CC[C@H](CN3CCC(c4ccc5c(c4)-n4c(nc(=O)c6c(Cl)cccc64)C54CCCCC4)CC3)CC2)nn1)C(C)(C)C)c1ccc(-c2scnc2C)cc1 [Compound A149]	UniProt:P51532	> 1000 nM
Cc1ncsc1-c1ccc([C@H](CC(=O)N2CCC(CN3CCC(c4ccc5c(c4)-n4c(nc(=O)c6c(Br)cccc64)C54CCCCC4)CC3)CC2)NC(=O)[C@@H]2C[C@@H](O)CN2C(=O)[C@@H](n2cc(C3CC3)nn2)C(C)(C)C)cc1 [Compound A141]	UniProt:P51532	< 10 nM
Cc1ncsc1-c1ccc([C@H](C)NC(=O)[C@@H]2C[C@@H](O)CN2C(=O)[C@H](C2CCN(C(=O)CCCN3CCC(c4ccc5c(c4)-n4c(nc(=O)c6c(Cl)cccc64)C54CCCCC4)CC3)CC2)n2cc(C3CC3)nn2)cc1 [Compound A106]	UniProt:P51532	100 to 1000 nM
Cc1ncsc1-c1ccc([C@H](CN2CCOCC2)NC(=O)[C@@H]2C[C@@H](O)CN2C(=O)[C@H](C2CCCCC2)n2cc([C@H]3CC[C@H](CN4CCC[C@H](c5ccc6c(c5)-n5c(nc(=O)c7c(Cl)cccc75)C65CCCCC5)C4)CC3)nn2)cc1 [Compound A131]	UniProt:P51532	> 1000 nM
Cc1ncsc1-c1ccc([C@@H](NC(=O)[C@@H]2C[C@@H](O)CN2C(=O)[C@@H](n2cc(C3CC3)nn2)C(C)(C)C)C(=O)N2CCC(N3CCC(c4ccc5c(c4)-n4c(nc(=O)c6c(Br)cccc64)C54CCCCC4)CC3)CC2)cc1 [Compound A138]	UniProt:P51532	< 10 nM

-- ask Find the recorded DC50 belonging to Cc1ncsc1-c1ccc([C@H](CN2CC(C)(F)C2)NC(=O)[C@@H]2C[C@@H](O)CN2C(=O)[C@@H](n2cc([C@H]3CC[C@H](CN4CCC(c5ccc6c(c5)-n5c(nc(=O)c7c(Cl)cccc75)C6(C)C)CC4)CC3)nn2)C(C)(C)C)cc1 [Compound A93] and report it.
-- reply > 1000 nM
